# credit: PubChem BioAssay AID652115

Target: NAD-dependent protein deacylase sirtuin-5, mitochondrial (Homo sapiens) (UniProt Q9NXA8)
Sequence (Q9NXA8 whole entry, looked up): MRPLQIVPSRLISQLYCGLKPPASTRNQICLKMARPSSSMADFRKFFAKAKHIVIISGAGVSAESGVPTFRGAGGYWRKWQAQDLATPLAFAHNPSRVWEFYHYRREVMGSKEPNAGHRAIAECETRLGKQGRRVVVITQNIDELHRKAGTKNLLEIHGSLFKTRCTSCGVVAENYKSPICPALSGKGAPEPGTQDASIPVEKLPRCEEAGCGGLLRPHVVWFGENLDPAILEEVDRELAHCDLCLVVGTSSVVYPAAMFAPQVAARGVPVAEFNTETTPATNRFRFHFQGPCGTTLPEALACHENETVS
Assay: blockers of sirtuin-5 deacylase activity – biochemical, fluorescence imaging, single point, set 5, primary screen (AID 652115)
Details: Purified SirT5, succinyl-peptide AMC, trypsin-coupled fluorescence; at 15 µM
The campaign covered roughly 330,000 compounds. About 3,800 (1.2%) were called active. Rule as the data show it: active = inhibition above about 15%; inconclusive = no clear call, values can overlap the other calls; inactive = below that. The list comes from a sample in which actives are over-represented; it also holds close analogues and randomly drawn compounds.
Outcomes: 1 = active, 0 = inactive

| structure | class.assignment |
| --- | --- |
| Cc1nn(CC(=O)Nc2ccc(F)cc2)c(=O)c2ccccc12 | 0 |
| Cc1ccc(NC(=O)Cn2c(C)csc2=O)cc1 | 0 |
| O=S(=O)(Cc1ccccc1)c1nc2ccccc2n1Cc1ccccn1 | 1 |
| COCC(=O)N(C)C[C@H]1Oc2cc(C#C[C@@H](C)O)ccc2S(=O)(=O)N([C@H](C)CO)C[C@H]1C | 0 |
| CN(C)CC(=O)N[C@H]1CC[C@H](CCNC(=O)Nc2ccc(F)cc2)O[C@H]1CO | 0 |
| COc1ccccc1S(=O)(=O)N1CC[C@@H]2[C@H]1c1cc(-c3ccccc3)ccc1N[C@@H]2CO | 0 |
| CN(C)[C@@H]1C(=O)C(C(N)=O)=C(O)[C@@]2(O)C(=O)C3=C(O)c4c(O)ccc(Cl)c4[C@@H](O)[C@H]3C[C@@H]12 | 0 |
| O=C(Nc1cc(Cl)cc(Cl)c1)N[C@@H]1CC[C@H](CCNS(=O)(=O)c2cccc(F)c2)O[C@H]1CO | 0 |
| CCN1/C(=C\c2ccc3ccccc3[n+]2CC)Sc2cc(C)ccc21 | 1 |
| COc1ccc2c3c(n(C)c2c1)[C@H](CO)N(C)CC31CN(S(=O)(=O)c2cccc(C)c2)C1 | 0 |
